- Test system: Monochoria vaginalis Presi
- protocol summary: Test for herbicidal effect against paddy field weeds (Test Example 1)
- Assay type: in vivo
- condition label: 30 g ai/ha; application 13 days after inoculation; examined 3 weeks after treatment
measured property: herbicidal effect Monochoria vaginalis (%)
Give your result in % as a bare value.

// assay Monochoria vaginalis Presi, entry COc1cc(OC)nc(C(O)c2cccc(F)c2NS(=O)(=O)C(F)F)n1 (stereo not shown) , herbicidal effect Monochoria vaginalis value = 100

Reading of herbicidal effect Monochoria vaginalis for COc1cc(OC)nc(C(O)c2cccc(F)c2NS(=O)(=O)C(F)(F)F)n1 (stereo not shown) [Compound C-1, reference compound] with Monochoria vaginalis Presi: 60

Monochoria vaginalis Presi herbicidal effect Monochoria vaginalis of `COc1cc(OC)nc(C(=O)c2cccc(F)c2NS(=O)(=O)C(F)F)n1` is 100

Log: Monochoria vaginalis Presi, compound COc1cc(OC)nc(C(O)c2cccc(Cl)c2NS(=O)(=O)C(F)F)n1 (stereo not shown) , herbicidal effect Monochoria vaginalis = 100
